These measurements were taken from paper PMC5905120.

- System Under Test: human CLEC10A (Homo sapiens, UniProt Q8IUN9)
- Construct: purchased R&D Systems
- Test Summary: Solid-phase binding to recombinant human CLEC10A
- Details: double-reciprocal plot of binding vs. peptide concentration, biotinylated peptide, binding buffer 25 mM Tris HCl pH 7.4, 150 mM NaCl, 0.05% Tween-20, 1 h, streptavidin-peroxidase 450 nm, ± S.D., 4 separate assays
Bridges are numbered along the chain shown (N, C = ends). Roman numbers before positions name the chains, in order. Where no end group is shown, it is not given here.
Measured Endpoint: pKd
Scale for pKd: -log10 of concentration given in mol/L; no unit attached.

Problem: Any idea what its pKd is? The substance is I: NQHTPRGGGSKK-NH2 / II: NQHTPRGGGSK / III: NQHTPRGGGS / IV: NQHTPRGGGS (amide I:11-IV:C, I:12-II:C, II:11-III:C) [sv6D]
Result: 6.82
